molecular target: Hu/NoV/GII.4/MD2004/2004/U.S. VLP (human norovirus GII.4); test: cell-based or functional assay
Task for the reader: assign each of the following binders its reported HAI titer, B Rh+ RBC.
Please give the number followed by its unit.

- VHH 3.2 (VHH, llama VHH, MD2004 library; pHEN6, C-terminal His6 tag; also called clone 3.2) VHH: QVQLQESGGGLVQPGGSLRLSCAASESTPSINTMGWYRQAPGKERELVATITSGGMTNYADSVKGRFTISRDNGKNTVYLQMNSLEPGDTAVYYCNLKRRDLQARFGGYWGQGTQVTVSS: 0.19 µg/mL
- VHH 4.1 (VHH, llama VHH, MD2004 library; pHEN6, C-terminal His6 tag; also called clone 4.1) VHH: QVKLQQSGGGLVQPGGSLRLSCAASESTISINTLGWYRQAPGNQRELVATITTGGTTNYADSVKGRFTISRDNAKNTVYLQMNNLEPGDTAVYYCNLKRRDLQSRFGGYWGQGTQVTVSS: 0.19 µg/mL
- VHH 19 (VHH, MD2004 library, subtractive biopanning; His6 tag; also called 19.1; clone 19) VHH: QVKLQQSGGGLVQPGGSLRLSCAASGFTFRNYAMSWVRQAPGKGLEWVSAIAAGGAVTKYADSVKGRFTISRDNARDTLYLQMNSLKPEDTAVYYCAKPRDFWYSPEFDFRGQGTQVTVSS: 0.39 µg/mL

// next entry
Q: For VHH 5.4 (VHH, llama VHH, MD2004 library; pHEN6, C-terminal His6 tag; also called clone 5.4) VHH: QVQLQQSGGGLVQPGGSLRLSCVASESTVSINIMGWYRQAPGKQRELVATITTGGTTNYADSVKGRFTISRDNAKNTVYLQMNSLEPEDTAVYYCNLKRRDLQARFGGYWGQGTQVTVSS , what is its reported HAI titer, B Rh+ RBC?
Result: 0.39 µg/mL
